Field: pIC50. Provide a value for each of the compounds that follow.
System: LOVO cells
method: LOVO CTG proliferation assay (120 h) (CRC, G13D)
Type: cell-based
condition-description: Homo sapiens, CTG 120 h
Scale: pIC50 equals -log10([C]), with [C] in mol/L.

Enter pIC50 (test system LOVO cells) for C[C@H](Oc1cc(-c2ccn([C@H]3CCCOC3)n2)nc(-c2noc3c2CCC[C@@]32CCCc3sc(N)c(C#N)c32)n1)[C@@H]1CCCN1C
6.83

Fill in pIC50 for C[C@H](Oc1cc(C2COCCO2)nc(-c2noc3c2CCC[C@@]32CCCc3sc(N)c(C#N)c32)n1)[C@@H]1CCCN1C (stereo partly drawn) tested with LOVO cells.
6.83

Provide the reported pIC50 (system: LOVO cells) for C[C@H](Oc1cc(C2=CCOCC2)nc(-c2noc3c2CCC[C@@]32CCCc3sc(N)c(C#N)c32)n1)[C@@H]1CCCN1C
7.31

====

tgt: KRAS (G12C)::SOS1 (Homo sapiens (Human), UniProt P01116, C118S/C51S/C80L/G12C)
Sequence (P01116 other isoform, or with tags, fused parts or gaps G12C/C51S/C80L/C118S): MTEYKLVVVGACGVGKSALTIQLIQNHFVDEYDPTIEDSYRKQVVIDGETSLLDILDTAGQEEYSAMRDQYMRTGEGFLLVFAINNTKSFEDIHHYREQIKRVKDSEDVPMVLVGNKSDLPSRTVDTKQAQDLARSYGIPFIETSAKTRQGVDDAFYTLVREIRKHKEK
method: KRAS::SOS1 AlphaScreen binding assay, KRAS G12C
measured-quantity: IC50 (nM)
Report the value in nM with no unit label.

Input C[C@H]1CNCCCN1c1cc(-c2ccn(C)n2)nc(-c2noc3c2CCC[C@@]32CCCc3sc(N)c(C#N)c32)n1 , output reported IC50.
5

Annotate the compound C[C@H](Oc1cc(-n2ccnn2)nc(-c2onc3c2CCC[C@@]32CCCc3sc(N)c(C#N)c32)n1)[C@@H]1CCCN1C with its measured IC50.
2

Provide measured IC50 value, entry: [2H]C([2H])([2H])N1C[C@H](F)C[C@H]1[C@H](C)Oc1cc(N2CCN(C)C3(CC3)C2)nc(-c2noc3c2CCC[C@@]32CCCc3sc(N)c(C#N)c32)n1
4

Specify measured IC50 for C[C@H](Oc1cc(N2CCN(C)C3(COC3)C2)nc(-c2noc3c2CCC[C@@]32CCCc3sc(N)c(C#N)c32)n1)[C@@H]1C[C@@H](F)CN1C .
2

Tell us which IC50 value is on record for C[C@H](Oc1cc(-n2cccc3cnnc2-3)nc(-c2noc3c2CCC[C@@]32CCCc3sc(N)c(C#N)c32)n1)[C@@H]1CCCN1C
5

Using known records, supply IC50 for C[C@H](Oc1cc(N2CCN(C)C3(CCOC3)C2)nc(-c2noc3c2CCC[C@@]32CCCc3sc(N)c(C#N)c32)n1)[C@@H]1C[C@@H](F)CN1C (stereo partly drawn)
8

====

method: Solubility measurement (DMSO solution method), McIlvaine buffer pH 4.5 or 6.8
Format: physicochemical
condition-description: aqueous buffer, kinetic from dmso stock; McIlvaine buffer pH 4.5; DMSO stock diluted to 250 μM; 24 h shaking at ambient temperature; read-out: solubility pH 4.5
measured-quantity: solubility at 24 h (µg/mL)
Could you give me the number in µg/mL? Just the number is fine.

Supply solubility at 24 h value. Item: CNC(=O)c1ccn(-c2cc(O[C@@H](C)[C@@H]3CCCN3C)nc(-c3noc4c3CCC[C@@]43CCCc4sc(N)c(C#N)c43)n2)n1 [II-20]
83

Give the reported value of solubility at 24 h for this record: C[C@H](Oc1cc(-c2ccccn2)nc(-c2noc3c2CCC[C@@]32CCCc3sc(N)c(C#N)c32)n1)[C@@H]1CCCN1C [II-85]
38

Query solubility at 24 h for CO[C@H]1CCN(C)[C@@H]1[C@H](C)Oc1cc(-n2ccc(C(=O)N[C@H]3CCOC3)n2)nc(-c2noc3c2CCC[C@@]32CCCc3sc(N)c(C#N)c32)n1 [II-198]
12
